system: SK-MEL-2 melanoma; test: NCI-60 one-dose screen, 48 h (100 = growth as untreated, 0 = no growth, -100 = all killed); conditions: 10 µM unless noted
Compounds without any hit were thinned out: in the full panel of roughly 83,000, 20% have a hit.
MEASURE NAME: growth (%)
Write the number in % without appending the unit.

Challenge: So what does the record say about growth for "NNc1cccc([N+](=O)[O-])c1" ?
Response given: 98

Challenge: Moving on to "OC(Cc1cc(CC(O)(C(F)(F)F)C(F)(F)F)nc(CC(O)(C(F)(F)F)C(F)(F)F)c1)(C(F)(F)F)C(F)(F)F"
Response given: -28.3

Challenge: Moving on to "COc1ccc(NC(=O)/C(=C/N2C(=O)/C(=C/c3ccc(OC)c(OC)c3)NC2=S)C(C)=O)cc1"
Response given: 87.1

Challenge: Moving on to CN1CCC(CN2c3ccccc3Sc3ccccc32)C1 (stereo not given)
Response given: 114

Challenge: Moving on to "CCOC(=O)C1=C(C(=O)c2ccccc2)C(c2cccc([N+](=O)[O-])c2)C(C(=O)c2ccccc2)=C(C(=O)OCC)N1"
Response given: 105

====

system: MDA-MB-435 melanoma; assay: NCI-60 one-dose screen, 48 h; conditions: 10 µM unless noted
This is part of a sample that, as a whole, favours compounds with a hit. Of some 83,000 tested, about 20% had one in any assay. Active and inactive are the calls of the source. How the source made its calls: active means growth percent below 10; inactive means the rest. *1 amine or outer side, *2 acyl side, *3 side chain or, on linkers, in order; H or OH if unused. Where a SMILES comes first, the peptide text is derived from it. [ ]: non-standard residue; d: D form. The star is where a group is joined. X5 = CCC(=O)CC1CC(C)CC(C(=O)[*:2])N1[*:1]; X4 = CCCCCCCCC(C)C(=O)*; Aib = CC(C)(N)C(=O)O; X6 = CC(CN(C)CCO)N*
Returns: one label drawn from 1 for active, -1 for inactive

Challenge: Assay outcome for "CCCCCCCCCCCC[n+]1ccc(CCCCCCCCC)cc1" : what was it?
Response given: 1

Challenge: Moving on to "Clc1ccc(-n2ncc3c(NCCCN4CCOCC4)ncnc32)cc1"
Response given: -1

Challenge: Moving on to "C(=N\Nc1ccc2ccccc2n1)/c1ccccn1"
Response given: -1

Challenge: Moving on to "O=C(Cc1ccccc1)C(F)(F)F"
Response given: -1

Challenge: Moving on to "COc1cc(-c2ccc(-[n+]3nc(-c4ccc([N+](=O)[O-])cc4)nn3-c3ccc([N+](=O)[O-])cc3)c(OC)c2)ccc1-[n+]1nc(-c2ccc([N+](=O)[O-])cc2)nn1-c1ccc([N+](=O)[O-])cc1"
Response given: 1

Challenge: Moving on to NC(CS/C(Cl)=C/Cl)C(=O)O (stereo unspecified)
Response given: -1

Challenge: Moving on to "O=C(c1ccccc1)N(CCCl)C(=O)N(CCCl)C(=O)c1ccccc1"
Response given: -1

Challenge: Moving on to COC1CC(C)C(OC)c2cc(O)cc(c2O)NC(=O)/C(C)=C/C=C\C(C)C(OC(N)=O)/C(C)=C\C(C)C1OC (stereo unspecified)
Response given: -1

Challenge: Moving on to CC1CC(C)(C)OB(OC(C)CC(C)(C)OB2OC(C)CC(C)(C)O2)O1 (stereo unspecified)
Response given: -1

Challenge: Moving on to "Oc1ccccc1N=Cc1ccccc1"
Response given: -1

Challenge: Moving on to "Clc1ccccc1C(c1ccccc1)(c1ccccc1)n1ccnc1"
Response given: -1

Challenge: Moving on to CCCCCCCCC(C)C(=O)N1CCCC1C(=O)N1C(CC(=O)CC)CC(C)CC1C(=O)NC(C)C(=O)NC(C)(C)C(=O)NC(C)(C)C(=O)NC(C(=O)NC(C)C(=O)NC(C)(C)C(=O)NC(C)(C)C(=O)NC(C)CN(C)CCO)C(C)CC (stereo unspecified) (X4-P[X5]A[Aib][Aib]IA[Aib][Aib]-X6; configuration not given here)
Response given: 1

Challenge: Moving on to "CC[n+]1ccc(Nc2ccc(NC(=O)c3ccc(Nc4cc[n+](CC)c5ccc([N+](=O)[O-])cc45)cc3)cc2)cc1"
Response given: -1

Challenge: Moving on to "Nc1ccc(Oc2ccccc2)c(Cl)c1"
Response given: -1

Challenge: Moving on to "O=C1C(=O)c2cccnc2-c2ncccc21"
Response given: 1

Challenge: Moving on to "O=C(O)c1ccc2c(c1)C(=O)c1ccccc1C2=O"
Response given: -1

Challenge: Moving on to "Cc1ccc2cccc(OC(=O)Nc3cccc(C(F)(F)F)c3)c2n1"
Response given: -1

Challenge: Moving on to "COC(=O)c1ccc(=O)c2nc3/c(=C/O)c(O)cc(=O)c3[nH]c12"
Response given: -1

Challenge: Moving on to "Cc1onc(-c2ccccc2)c1C(=O)N/N=C/c1cc(Cl)cc(Cl)c1O"
Response given: -1

Challenge: Moving on to CC(/C=N/NC(N)=S)Cc1ccc(C(C)C)cc1 (stereo unspecified)
Response given: -1

Challenge: Moving on to "CCCCCCCCCCCCCCCCCC1=NCCCN1CCO"
Response given: -1

Challenge: Moving on to O=C(c1ccccc1)C(O)C(Br)(CBr)c1ccccc1 (stereo unspecified)
Response given: -1

Challenge: Moving on to CCC(C)C(N)C(=O)NC(CC(N)=O)C(=O)NC(CC(C)C)C(=O)NC(CCCCN)C(=O)NC(C)C(=O)NC(CC(C)C)C(=O)NC(C)C(=O)NC(C)C(=O)NC(CC(C)C)C(=O)NC(C)C(=O)NC(CCCCN)C(=O)NC(CCCCN)C(=O)NC(C(=O)NC(CC(C)C)C(N)=O)C(C)CC (stereo unspecified)
Response given: -1

Challenge: Moving on to CCCCC(CCc1ccc([N+](=O)[O-])cc1)(C(C)=O)C(=O)OCC (stereo unspecified)
Response given: -1

Challenge: Moving on to "O=C/C=C/c1ccc([N+](=O)[O-])cc1"
Response given: -1

Challenge: Moving on to "S=C=Nc1ccc(N2CCOCC2)cc1"
Response given: -1

Challenge: Moving on to "Fc1ccc(NCCS)cc1"
Response given: -1

Challenge: Moving on to "CN=C(N)N/N=C(\C)c1ccc2c(c1)Cc1ccccc1-2"
Response given: 1

Challenge: Moving on to "CCCCCCCCCCCCNCCCc1ccccc1"
Response given: -1

Challenge: Moving on to "O=C(OC12CC3CC(CC(C3)C1)C2)c1ccc(NCc2cc(O)ccc2O)cc1"
Response given: 1

Challenge: Moving on to "COc1ccc2nc3cc([N+](=O)[O-])ccc3c(NNc3ccccc3)c2c1"
Response given: -1

====

system: SK-OV-3 ovarian; assay: NCI-60 one-dose screen, 48 h (100 = growth as untreated, 0 = no growth, -100 = all killed); details: 10 µM unless noted
About 83,000 compounds went through this panel and 20% of them were active in at least one assay; those are over-represented in the sample as a whole.
MEASURE NAME: growth (%)
Write the number in % without appending the unit.

Challenge: # get_value(readout= growth, system= SK-OV-3 ovarian) for "O=C1C=CC(=O)N1C1CCCCCCCCCCC1"
Response given: 90.6

Challenge: Moving on to "NC(=S)N/N=C\c1nccc2c(C(F)(F)F)cccc12"
Response given: 11.4

Challenge: Moving on to "Cc1cc(C)c(C#N)c(Sc2nc(C)c([N+](=O)[O-])c(C)c2C#N)n1"
Response given: 81.3

Challenge: Moving on to "CC1(C)N=c2cc3c(cc2N1c1ccc(Cl)cc1)=Nc1ccccc1N3c1ccc(Cl)cc1"
Response given: 59.4

Challenge: Moving on to "CCCCCCCCCCCCCCCCCC1=NCCCN1CCO"
Response given: 97.6

Challenge: Moving on to "Cc1oc2c(C)c3oc(=O)cc(C)c3cc2c1CCl"
Response given: 89.1

Challenge: Moving on to "O=C1C(=O)c2cccnc2-c2ncccc21"
Response given: -32.8

Challenge: Moving on to "c1csc(-c2[nH]nc3c2CCc2ccccc2-3)c1"
Response given: 98.1

Challenge: Moving on to CCN(CC)CC(O)CNc1ccc(NCC2CO2)c2c1C(=O)c1ccccc1C2=O (stereo unspecified)
Response given: 22.5

Challenge: Moving on to "O=[N+]([O-])c1ccc2c(c1)Cc1ccccc1-2"
Response given: 112

Challenge: Moving on to "[Cl-].[Rh+3].c1ccc(-c2ccnc3c2ccc2c(-c4ccccc4)ccnc23)cc1.c1ccc(-c2ccnc3c2ccc2c(-c4ccccc4)ccnc23)cc1.c1ccc(-c2ccnc3c2ccc2c(-c4ccccc4)ccnc23)cc1"
Response given: 77.9

Challenge: Moving on to CCCCCCCCCCCC[N+]1(CCCCCCCCCCCC)CCCC(C)C1 (stereo unspecified)
Response given: -96.2

Challenge: Moving on to N#CC1c2ccccc2C=CN1C(=O)CCCl (stereo unspecified)
Response given: 97.2

Challenge: Moving on to "O=C1C=CC(O)=CC1=P(c1ccccc1)(c1ccccc1)c1ccccc1"
Response given: 91.5

Challenge: Moving on to CC1(C)OCC(COC(c2ccccc2)(c2ccccc2)c2ccccc2)O1 (stereo unspecified)
Response given: 112

Challenge: Moving on to CCCCCC/C=C1\CCC(CN2CCCC2)C1=O (stereo unspecified)
Response given: 110

Challenge: Moving on to "Cc1ccc(N2C(=O)C=CC2=O)cc1"
Response given: 121

Challenge: Moving on to CCOC(=O)C1(C)CCCC1N (stereo unspecified)
Response given: 131

Challenge: Moving on to "c1ccc(-c2cccc(-c3ccccn3)n2)nc1"
Response given: 7.86

Challenge: Moving on to COC1=CC(=O)c2c(O)c3c(c(O)c2C1=O)CC(C)(O)OC3 (stereo unspecified)
Response given: 86.9

Challenge: Moving on to "Oc1ccc2ccccc2c1N=Nc1ccccn1"
Response given: 33.6

Challenge: Moving on to "N=C(N)Sc1cccc[n+]1[O-]"
Response given: 85.3

Challenge: Moving on to "C1=C(c2ccccc2)c2ccccc2C1"
Response given: 109

Challenge: Moving on to "COC(=O)[C@]1(C)CCC[C@]2(C)c3ccc(C(C)C)cc3C(=O)[C@@H](Br)[C@@H]12"
Response given: 96.9

Challenge: Moving on to Cc1ccccc1N=C(N)Nc1ccccc1C (tested in a mixture with another compound)
Response given: 98.5

Challenge: Moving on to O=C(c1ccccc1)C(Br)[N+](=O)[O-] (stereo unspecified)
Response given: 79.9

Challenge: Moving on to OC(c1cc(-c2ccc(Cl)cc2)nc2c(Cl)cccc12)C1CCCCN1 (stereo unspecified)
Response given: -73.4

Challenge: Moving on to CC1C(c2ccccc2)OCCN1C(=S)Nc1ccc(S(=O)(=O)N2CCCCC2)cc1 (stereo unspecified)
Response given: 110

Challenge: Moving on to "Oc1ccc(Cl)cc1Cc1cc(Cl)ccc1O"
Response given: 84.8

Challenge: Moving on to CCCCCCCCC(=O)OCCCC(CCC(CCC1CCCO1)OC(=O)CCCCCCCC)OC(=O)CCCCCCCC (stereo unspecified)
Response given: 96.4

Challenge: Moving on to CCN1CCCC(Nc2cc(C)nc(/N=C(/N)Nc3ccc(Cl)c(Cl)c3)n2)C1 (stereo unspecified)
Response given: 6.57

Challenge: Moving on to "O=C(Nc1ccc(Cl)c(Cl)c1)Nc1ccccc1O"
Response given: 89.2

Challenge: Moving on to "CCNc1nnnn1CC"
Response given: 109

Challenge: Moving on to "Cc1ccccc1NC(=O)Cc1csc2[n+]1C(=O)/C(=C/c1ccc([N+](=O)[O-])cc1)S2"
Response given: 90.1

Challenge: Moving on to "O=S(=O)(O)c1cnccn1"
Response given: 89.6

Challenge: Moving on to "Cn1ccc(=Nc2ccc(NC(=O)c3ccc(N=c4ccn(C)c5ccc([N+](=O)[O-])cc45)cc3)cc2)cc1"
Response given: 91.4

Challenge: Moving on to "N#Cc1c2ccccc2nc2ccccc12"
Response given: 116

Challenge: Moving on to "O=C1C=CC(=O)c2c(O)c(CO)c(CO)c(O)c21"
Response given: 109

Challenge: Moving on to "Cc1ccc2cccc(OC(=O)Nc3cccc(C(F)(F)F)c3)c2n1"
Response given: 108

Challenge: Moving on to "OC(Cc1cc(CC(O)(C(F)(F)F)C(F)(F)F)nc(CC(O)(C(F)(F)F)C(F)(F)F)c1)(C(F)(F)F)C(F)(F)F"
Response given: -16.8

Challenge: Moving on to "CN1CSC(=S)N(Cc2ccccc2)C1"
Response given: 114
